The reported measurements were obtained from patent US11072581B2.

biological target: EcoLRS (leucyl-tRNA synthetase from Escherichia coli) (Escherichia coli, UniProt P07813); construct: made in house; host or cells: Escherichia coli M15; experiment: aaRS aminoacylation assay (ATP consumption), EcoLRS; assay type: biochemical
Sequence (P07813 whole entry): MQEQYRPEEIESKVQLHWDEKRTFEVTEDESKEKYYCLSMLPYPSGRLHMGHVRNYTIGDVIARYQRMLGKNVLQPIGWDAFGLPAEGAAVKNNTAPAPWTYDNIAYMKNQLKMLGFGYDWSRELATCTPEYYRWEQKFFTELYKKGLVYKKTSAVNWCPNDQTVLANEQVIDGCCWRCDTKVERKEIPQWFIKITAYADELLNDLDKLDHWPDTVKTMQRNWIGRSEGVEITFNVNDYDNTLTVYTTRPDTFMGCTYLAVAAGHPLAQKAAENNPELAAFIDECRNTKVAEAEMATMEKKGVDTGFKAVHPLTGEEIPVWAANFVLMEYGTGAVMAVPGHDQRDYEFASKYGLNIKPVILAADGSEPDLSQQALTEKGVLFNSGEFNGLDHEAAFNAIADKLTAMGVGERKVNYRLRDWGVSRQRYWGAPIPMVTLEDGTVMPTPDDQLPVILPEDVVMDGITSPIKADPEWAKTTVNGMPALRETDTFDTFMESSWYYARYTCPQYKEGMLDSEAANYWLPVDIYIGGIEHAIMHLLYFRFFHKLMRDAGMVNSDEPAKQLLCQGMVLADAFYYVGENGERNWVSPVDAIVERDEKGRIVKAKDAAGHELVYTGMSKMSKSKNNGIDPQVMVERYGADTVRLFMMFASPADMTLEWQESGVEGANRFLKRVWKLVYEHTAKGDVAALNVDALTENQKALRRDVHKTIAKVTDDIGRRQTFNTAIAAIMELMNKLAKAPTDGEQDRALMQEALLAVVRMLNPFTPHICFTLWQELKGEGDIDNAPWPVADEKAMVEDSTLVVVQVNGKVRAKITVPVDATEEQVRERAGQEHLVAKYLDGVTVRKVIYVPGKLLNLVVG
attribute measured: log10(IC50) (log10 of the value in nM)
Field: value | Transform: log10 | Quantity: IC50 | Unit: nM

Previously resolved entries follow.
Cc1cc(-c2cccc(S(=O)(=O)NC(=O)[C@@H](N)CC3CC3)c2)nc(N)n1    4.15
CC(C)C[C@H](N)C(=O)NS(=O)(=O)c1cccc(Cl)c1    1.49
CCCCc1ccc(S(=O)(=O)NC(=O)[C@@H](N)CC(C)C)cc1    2.82
CC(C)C[C@H](N)C(=O)NS(=O)(=O)c1cccc(-c2nc(N)nc3nc[nH]c23)c1    1.92

Would you mind listing log10(IC50) for each of the following compounds?
1. CC(C)C[C@H](N)C(=O)NS(=O)(=O)c1cccc(-c2cc(N(C)C)nc(N)n2)c1
2. CNc1cc(-c2cccc(S(=O)(=O)NC(=O)[C@@H](N)CC(C)C)c2)nc(N)n1
3. CC(C)C[C@H](N)C(=O)NS(=O)(=O)c1cccc2c1CNCC2
4. CC(C)C[C@H](N)C(=O)NS(=O)(=O)c1cccc(-c2cccc(N)n2)c1

1. 3.20
2. 1.71
3. 2.25
4. 0.78
